# Tested on: Intestine
# assay.method.text: Biodistribution in ddY mouse intestine at 0.5 uCi, iv after 10 mins
# Type: ADME, organism-based
# protocol.conditions: in vivo
Drug uptake values by entry
Respond with the figure and its unit, in that order.

Some solved entries appear below for comparison.
| compound | Drug uptake |
| --- | --- |
| COc1ccc(-c2nc(-c3ccc([125I])cc3)no2)cc1 | 3.53 % ID/g |
| CNc1ccc(-c2nc(-c3ccc([125I])cc3)no2)cc1 | 2.83 % ID/g |
| Nc1ccc(-c2nc(-c3ccc([125I])cc3)no2)cc1 | 3.08 % ID/g |

# evaluate next
Problem: Report value only: Drug uptake, Intestine, CN(C)c1ccc(-c2nc(-c3ccc([125I])cc3)no2)cc1
Result: 2.4 % ID/g

====

Drug uptake values by entry
# Test system: Blood
# assay.method.text: Biodistribution in ddY mouse blood at 0.5 uCi, iv after 2 mins
# Assay type: ADME, organism-based
# protocol.conditions: in vivo
Expressed in % ID/g, but write only the number.

Problem: State its Drug uptake: CNc1ccc(-c2nc(-c3ccc([125I])cc3)no2)cc1
Result: 3.54

Problem: State its Drug uptake: Nc1ccc(-c2nc(-c3ccc([125I])cc3)no2)cc1
Result: 4.55

Problem: State its Drug uptake: CN(C)c1ccc(-c2nc(-c3ccc([125I])cc3)no2)cc1
Result: 5.42

Problem: State its Drug uptake: COc1ccc(-c2nc(-c3ccc([125I])cc3)no2)cc1
Result: 1.96

====

# Test system: Brain
# assay.method.text: Biodistribution in ddY mouse brain at 0.5 uCi, iv after 2 mins
# Type: ADME, organism-based
# protocol.conditions: in vivo
Drug uptake values by entry
Expressed in % ID/g, but write only the number.

Some solved entries appear below for comparison.
| compound | Drug uptake, % ID/g |
| --- | --- |
| CN(C)c1ccc(-c2nc(-c3ccc([125I])cc3)no2)cc1 | 1.07 |
| Nc1ccc(-c2nc(-c3ccc([125I])cc3)no2)cc1 | 1.61 |
| COc1ccc(-c2nc(-c3ccc([125I])cc3)no2)cc1 | 2.06 |

# evaluate next
Problem: State its Drug uptake: CNc1ccc(-c2nc(-c3ccc([125I])cc3)no2)cc1
Result: 1.44

====

# Test system: Blood
# assay.method.text: Biodistribution in ddY mouse blood at 0.5 uCi, iv after 60 mins
# Format: ADME, organism-based
# protocol.conditions: in vivo, 1 h
observation.type: Drug uptake (% ID/g)
Expressed in % ID/g, but write only the number.

| compound | Drug uptake (% ID/g) |
| --- | --- |
| COc1ccc(-c2nc(-c3ccc([125I])cc3)no2)cc1 | 1.12 |
| Nc1ccc(-c2nc(-c3ccc([125I])cc3)no2)cc1 | 2.99 |
| CNc1ccc(-c2nc(-c3ccc([125I])cc3)no2)cc1 | 1.54 |

Problem: State its Drug uptake: CN(C)c1ccc(-c2nc(-c3ccc([125I])cc3)no2)cc1
Result: 1.56

====

Drug uptake values by entry
# System: Stomach
# assay.method.text: Biodistribution in ddY mouse stomach at 0.5 uCi, iv after 30 mins
# Type: ADME, organism-based
# protocol.conditions: in vivo, 0.5 h
Expressed in % ID/organ, but write only the number.

Some solved entries appear below for comparison.
| compound | observation.type | reported.result |
| --- | --- | --- |
| Nc1ccc(-c2nc(-c3ccc([125I])cc3)no2)cc1 | Drug uptake | 4.05 |
| CN(C)c1ccc(-c2nc(-c3ccc([125I])cc3)no2)cc1 | Drug uptake | 4.8 |
| CNc1ccc(-c2nc(-c3ccc([125I])cc3)no2)cc1 | Drug uptake | 4.89 |

# evaluate next
Problem: State its Drug uptake: COc1ccc(-c2nc(-c3ccc([125I])cc3)no2)cc1
Result: 2.46
